# targetDesc: Focal adhesion kinase 1 (Homo sapiens, UniProt Q05397)
# Sequence (Q05397 whole entry): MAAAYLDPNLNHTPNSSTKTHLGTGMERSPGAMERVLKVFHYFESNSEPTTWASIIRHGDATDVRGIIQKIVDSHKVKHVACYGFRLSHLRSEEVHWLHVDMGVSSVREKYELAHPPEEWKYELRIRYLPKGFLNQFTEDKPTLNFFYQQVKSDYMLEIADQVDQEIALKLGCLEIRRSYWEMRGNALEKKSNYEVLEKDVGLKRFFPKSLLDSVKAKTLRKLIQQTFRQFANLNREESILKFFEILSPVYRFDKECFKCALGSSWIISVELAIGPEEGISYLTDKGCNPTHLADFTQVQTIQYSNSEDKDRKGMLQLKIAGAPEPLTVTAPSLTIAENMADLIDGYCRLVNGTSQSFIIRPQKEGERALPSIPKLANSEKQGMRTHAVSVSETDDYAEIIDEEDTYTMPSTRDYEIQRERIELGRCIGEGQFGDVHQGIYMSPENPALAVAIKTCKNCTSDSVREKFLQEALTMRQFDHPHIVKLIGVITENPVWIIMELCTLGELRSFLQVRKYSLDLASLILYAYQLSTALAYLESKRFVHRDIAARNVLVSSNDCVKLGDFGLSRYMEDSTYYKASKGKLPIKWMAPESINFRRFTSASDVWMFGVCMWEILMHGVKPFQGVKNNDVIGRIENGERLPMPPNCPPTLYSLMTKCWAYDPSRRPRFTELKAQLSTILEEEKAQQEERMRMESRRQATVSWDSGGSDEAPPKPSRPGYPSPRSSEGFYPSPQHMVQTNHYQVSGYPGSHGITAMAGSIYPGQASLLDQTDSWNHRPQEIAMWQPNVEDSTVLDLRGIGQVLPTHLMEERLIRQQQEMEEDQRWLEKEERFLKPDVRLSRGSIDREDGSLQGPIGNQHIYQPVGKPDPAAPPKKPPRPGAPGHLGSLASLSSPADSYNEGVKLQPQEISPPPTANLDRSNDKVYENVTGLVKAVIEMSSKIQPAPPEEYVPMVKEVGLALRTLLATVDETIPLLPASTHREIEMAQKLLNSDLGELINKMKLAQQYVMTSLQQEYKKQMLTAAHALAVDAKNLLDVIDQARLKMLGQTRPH
# experimentSummary: Inhibition of FAK in human MCF7 cells
property: pIC50
The value called pIC50 is obtained by taking minus log10 of the concentration in mol/L.

Provide measured pIC50 value, entry: Cc1ccc(-n2cc(C(=O)NOCc3ccccc3F)c(-c3ccccc3)n2)cc1
4.81

====

# Test system: MCF7
# experimentSummary: Antiproliferative activity against human MCF7 cells after 48 hrs in presence of 10% FBS by MTT method
# Format: functional
# testContext: MCF7, 48 h
Hi there, I'd appreciate the recorded GI50 for every entry that follows.
Answer format: numeric, µM implied, no suffix.

Please list GI50 recorded for the molecule O=C(NOCc1ccccc1)c1cn(-c2ccccc2)nc1-c1ccccc1
13.4

Give reported GI50 value for O=C(NOCc1ccc(Cl)cc1Cl)c1cn(-c2ccc(Cl)cc2)nc1-c1ccccc1
16.2

In one line, give reported GI50 of the entry O=C(NOCc1ccccc1F)c1cn(-c2ccc(Cl)cc2)nc1-c1ccccc1 .
15.1

Complete the entry with GI50 for Cc1ccc(-n2cc(C(=O)NOCc3ccccc3Cl)c(-c3ccccc3)n2)cc1
2.64

Indicate its recorded GI50; the molecule in question is O=C(NOCc1ccccc1Cl)c1cn(-c2ccc(Cl)cc2)nc1-c1ccccc1
16.1

Quick one: give measured GI50 for O=C(NOCc1ccccc1)c1cn(-c2ccc(F)cc2)nc1-c1ccccc1
15.3

Answer with reported GI50 of COc1ccc(-n2cc(C(=O)NOCc3ccccc3F)c(-c3ccccc3)n2)cc1
6

Quick one: give measured GI50 for COc1ccc(-n2cc(C(=O)NOCc3ccc(Cl)cc3Cl)c(-c3ccccc3)n2)cc1
2.57

Note down GI50 recorded for Cc1ccc(-n2cc(C(=O)NOCc3ccccc3F)c(-c3ccccc3)n2)cc1
2.11

Assign GI50 to the following record: O=C(NOCc1ccccc1F)c1cn(-c2ccccc2)nc1-c1ccccc1
16.1

Please give measured GI50 of the following entry: O=C(NOCc1ccc(Cl)cc1Cl)c1cn(-c2ccccc2)nc1-c1ccccc1
9.66

Supply reported GI50 belonging to this molecule: O=C(NOCc1ccccc1)c1cn(-c2ccc(Cl)cc2)nc1-c1ccccc1
10.8

Answer with the recorded GI50 for the molecule listed here: O=C(NOCc1ccccc1F)c1cn(-c2ccc(F)cc2)nc1-c1ccccc1
12

====

# experimentSummary: Antiproliferative activity against human 293T cells after 48 hrs in presence of 10% FBS by MTT method
# Assay type: cell-based
# testContext: 293T (HEK-293T) cells
Record form. Attribute: CC50 at 48 h. Fill in for each entry.
Quick reminder: number only, in µM, skip the unit.

Kindly indicate its recorded CC50 at 48 h. Item: O=C(NOCc1ccccc1Cl)c1cn(-c2ccc(Cl)cc2)nc1-c1ccccc1
129

Quote CC50 at 48 h reported for Cc1ccc(-n2cc(C(=O)NOCc3ccc(Cl)cc3Cl)c(-c3ccccc3)n2)cc1 please.
39.6

Retrieve CC50 at 48 h measured for O=C(NOCc1ccc(Cl)cc1Cl)c1cn(-c2ccc(Cl)cc2)nc1-c1ccccc1 and print it.
46.3

Look up and state reported CC50 at 48 h for Cc1ccc(-n2cc(C(=O)NOCc3ccccc3Cl)c(-c3ccccc3)n2)cc1
38.7

Kindly indicate its recorded CC50 at 48 h. Item: Cc1ccc(-n2cc(C(=O)NOCc3ccccc3)c(-c3ccccc3)n2)cc1
40.8

Please report the measured CC50 at 48 h for O=C(NOCc1ccc(Cl)cc1Cl)c1cn(-c2ccc(F)cc2)nc1-c1ccccc1
45

Identify measured CC50 at 48 h associated with COc1ccc(-n2cc(C(=O)NOCc3ccccc3F)c(-c3ccccc3)n2)cc1
24.6

Identify the reported CC50 at 48 h for the following entry. O=C(NOCc1ccccc1Cl)c1cn(-c2ccc(F)cc2)nc1-c1ccccc1
44.7

Tell us which CC50 at 48 h value is on record for O=C(NOCc1ccccc1)c1cn(-c2ccc(Cl)cc2)nc1-c1ccccc1
51.9

Determine from records and report CC50 at 48 h for O=C(NOCc1ccccc1F)c1cn(-c2ccc(Cl)cc2)nc1-c1ccccc1
126

For the compound O=C(NOCc1ccccc1F)c1cn(-c2ccccc2)nc1-c1ccccc1 , give its measured CC50 at 48 h value.
75.7

Give me measured CC50 at 48 h, please, for this compound: COc1ccc(-n2cc(C(=O)NOCc3ccccc3Cl)c(-c3ccccc3)n2)cc1
586

Identify measured CC50 at 48 h corresponding to O=C(NOCc1ccccc1)c1cn(-c2ccc(F)cc2)nc1-c1ccccc1
217

Determine its reported CC50 at 48 h: COc1ccc(-n2cc(C(=O)NOCc3ccccc3)c(-c3ccccc3)n2)cc1
201

Give CC50 at 48 h for the following compound: Cc1ccc(-n2cc(C(=O)NOCc3ccccc3F)c(-c3ccccc3)n2)cc1
20.6

Answer with reported CC50 at 48 h of O=C(NOCc1ccccc1)c1cn(-c2ccccc2)nc1-c1ccccc1
122

Cited source for all entries: ChEMBL document CHEMBL4477266
